# TARGET UNDER TEST: FGFR2 (Homo sapiens, UniProt P21802)
# Construct: purchased DiscoveRx Corporation
# Sequence (P21802 22-821): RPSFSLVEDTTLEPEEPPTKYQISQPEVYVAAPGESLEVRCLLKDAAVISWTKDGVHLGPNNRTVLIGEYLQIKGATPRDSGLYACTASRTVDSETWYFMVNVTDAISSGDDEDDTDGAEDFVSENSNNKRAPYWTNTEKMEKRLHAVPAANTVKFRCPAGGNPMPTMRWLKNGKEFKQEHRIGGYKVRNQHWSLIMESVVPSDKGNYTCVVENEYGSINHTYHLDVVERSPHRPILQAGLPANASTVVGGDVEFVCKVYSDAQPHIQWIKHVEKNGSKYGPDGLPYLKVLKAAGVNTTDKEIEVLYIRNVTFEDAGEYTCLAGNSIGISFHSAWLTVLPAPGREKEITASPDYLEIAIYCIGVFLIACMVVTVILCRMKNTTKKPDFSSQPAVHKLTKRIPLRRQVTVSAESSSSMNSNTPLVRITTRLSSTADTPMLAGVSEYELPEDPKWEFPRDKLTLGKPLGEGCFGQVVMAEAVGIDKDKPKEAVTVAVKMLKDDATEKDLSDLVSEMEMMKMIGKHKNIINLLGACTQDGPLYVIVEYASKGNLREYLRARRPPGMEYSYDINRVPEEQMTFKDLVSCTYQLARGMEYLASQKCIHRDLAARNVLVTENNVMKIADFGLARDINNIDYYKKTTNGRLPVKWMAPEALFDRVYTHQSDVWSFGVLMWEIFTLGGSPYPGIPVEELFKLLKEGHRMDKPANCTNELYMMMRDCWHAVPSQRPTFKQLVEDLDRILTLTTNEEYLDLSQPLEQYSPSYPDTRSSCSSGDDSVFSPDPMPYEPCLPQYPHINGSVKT
# METHOD: Enzyme binding assay (KINOMEscan) FGFR2
# RUN CONDITIONS: pKd = -log Kd (M), read-out: FGFR2_pKd (converted)
Field: Kd. Provide a value for each of the molecules that follow.
State just the number; it will be interpreted in M.

Request the reported Kd associated with COc1cc(OC)c(F)c(N(Cc2nccn2S(=O)(=O)N(C)C)c2ccc3ncn(-c4ccncc4)c(=O)c3c2)c1 3.16e-08

Input COc1cc(OC)c(F)c(N(Cc2nccn2S(=O)(=O)N(C)C)c2ccc3ncn(C4CCOCC4)c(=O)c3c2)c1 2.51e-07

And the next one, COc1cc(OC)cc(/C(=C\C#N)c2ccc3ncn(-c4cnn(C)c4)c(=O)c3c2)c1 ? 3.98e-07

----------
# TARGET UNDER TEST: FGFR4 (Homo sapiens)
# Construct: purchased DiscoveRx Corporation
# Sequence (P22455 22-802): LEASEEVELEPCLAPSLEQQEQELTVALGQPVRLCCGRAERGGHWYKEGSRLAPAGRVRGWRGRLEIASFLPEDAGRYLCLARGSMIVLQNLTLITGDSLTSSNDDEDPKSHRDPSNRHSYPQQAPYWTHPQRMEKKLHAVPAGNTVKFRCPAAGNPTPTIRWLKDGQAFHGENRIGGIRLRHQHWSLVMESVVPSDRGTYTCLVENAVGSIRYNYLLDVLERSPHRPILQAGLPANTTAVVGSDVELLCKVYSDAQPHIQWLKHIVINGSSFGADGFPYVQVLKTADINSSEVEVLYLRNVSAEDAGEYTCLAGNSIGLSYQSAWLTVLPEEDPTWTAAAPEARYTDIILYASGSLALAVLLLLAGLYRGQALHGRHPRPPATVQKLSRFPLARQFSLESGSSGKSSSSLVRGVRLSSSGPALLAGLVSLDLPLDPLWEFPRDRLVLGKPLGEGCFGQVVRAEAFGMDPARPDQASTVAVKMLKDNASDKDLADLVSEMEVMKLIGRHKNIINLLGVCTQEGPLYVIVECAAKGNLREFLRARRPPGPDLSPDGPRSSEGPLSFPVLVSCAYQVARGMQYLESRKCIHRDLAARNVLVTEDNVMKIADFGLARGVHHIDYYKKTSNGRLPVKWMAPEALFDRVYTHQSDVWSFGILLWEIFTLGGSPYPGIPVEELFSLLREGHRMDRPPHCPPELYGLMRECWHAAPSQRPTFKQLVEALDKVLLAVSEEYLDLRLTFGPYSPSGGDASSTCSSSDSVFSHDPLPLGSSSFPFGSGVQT
# METHOD: Enzyme binding assay (KINOMEscan) FGFR4
# RUN CONDITIONS: pKd = -log Kd (M), read-out: FGFR4_pKd (converted)
READOUT KIND: Kd (M)
State just the number; it will be interpreted in M.

For the compound COc1cc(OC)c(F)c(N(CCO)c2ccc3ncn(-c4cccnc4)c(=O)c3c2)c1 , what Kd is on record? 5.01e-07

Further, for COc1cc(OC)cc(N(CCNC(C)C)c2ccc3ncn(-c4cccnc4)c(=O)c3c2)c1 ? 6.31e-07

Next record, please: COc1cc(OC)c(F)c(N(CCCNC(C)C)c2ccc3ncn(C4CCNCC4)c(=O)c3c2)c1F 3.98e-08

Field entry: COc1cc(OC)c(F)c(N(CCO)c2ccc3ncn(C4CCOCC4)c(=O)c3c2)c1 1.58e-06

Now try COc1cc(OC)c(F)c(N(CCNC(C)C)c2ccc3ncn(-c4cnn(C)c4)c(=O)c3c2)c1F . 5.01e-09

Lookup COc1cc(OC)c(F)c(N(Cc2ncc[nH]2)c2ccc3ncn(C4CCNCC4)c(=O)c3c2)c1 5.01e-07

Please answer likewise for CNCCN(c1ccc2ncn(C3CCNCC3)c(=O)c2c1)c1cc(OC)cc(OC)c1F 2e-06

Also, COc1cc(OC)c(F)c(N(CCO)c2ccc3ncn(-c4ccncc4)c(=O)c3c2)c1 please. 1.58e-07

Param item: COc1cc(OC)c(F)c(N(CCCNC(C)C)c2ccc3ncn(C4CCOCC4)c(=O)c3c2)c1 5.01e-08

Further, for COc1cc(OC)c(F)c(N(CCO)c2ccc3ncn(-c4ccncc4)c(=O)c3c2)c1F ? 5.01e-08

Cool, now COc1cc(OC)c(F)c(N(Cc2ncc[nH]2)c2ccc3ncn(C4CCNCC4)c(=O)c3c2)c1F 5.01e-08

Then what about the compound COc1cc(OC)c(F)c(N(CCO)c2ccc3ncn(-c4cncnc4)c(=O)c3c2)c1 ? 2e-06

What about this compound? COc1cc(OC)c(F)c(N(CCO)c2ccc3ncn(-c4cncnc4)c(=O)c3c2)c1F 2e-07

----------
Mark condition met for melting point under 200 °C, condition not met if at or over.

Hello, I'm reviewing records and need to know if melting point of COc1cc(OC)cc(N(CCO)c2ccc3ncn(-c4cnn(C)c4)c(=O)c3c2)c1 is below 200 °C. Could you check? condition met

Proceed to COc1cc(OC)cc(N(Cc2ncc[nH]2)c2ccc3ncn(C4CCNCC4)c(=O)c3c2)c1 condition not met

Another: COc1cc(OC)c(F)c(N(CCNC(C)C)c2ccc3ncn(-c4cnn(C)c4)c(=O)c3c2)c1F condition met

Note, next up: CNCCN(c1ccc2ncn(C3CCNCC3)c(=O)c2c1)c1cc(OC)cc(OC)c1F condition met

Same again, this time with COc1cc(OC)c(F)c(N(Cc2nccn2S(=O)(=O)N(C)C)c2ccc3ncn(-c4cccnc4)c(=O)c3c2)c1F condition met

Then this molecule: COc1cc(OC)c(F)c(N(CCNC(C)C)c2ccc3ncn(-c4ccccc4)c(=O)c3c2)c1F condition met

Same question, COc1cc(OC)c(F)c(N(Cc2ncc[nH]2)c2ccc3ncn(C4CCNCC4)c(=O)c3c2)c1 this time condition not met
